- Measurement target: HLA-DR DRB1*1501 (human)
- Test method notes: radioligand binding
Measured metric: IC50 (nM)

A. NPILLWQPIPVHTVPLSEDQ [PAP_(133-152)]
B. KSEEFQKRLHPYKDFIATLG [PAP_(173-192)]
Query: For A and B , which recorded IC50 is lower? State the label of the item chosen.
Result: A
(A: 1.5 nM, B: 4 nM)
